Where do these numbers come from? They come from the supplement of paper PMC10567573.

B1: TRIM39 (parent)
chain: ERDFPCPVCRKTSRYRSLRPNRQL

# Variants of: B1
# measurementDescription: protein stability index of a GFP-peptide fusion (GPS, HEK-293T) (PSI 1-6); higher = more stable;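 also: lentivirally expressed fusions sorted by FACS into six bins by GFP to DsRed ratio, PSI derived from sequencing read proportions per bin multiplied by bin number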
# testSettings: c terminus: a fixed tail appended
Response key: true means protein stability index >= 2; false means protein stability index < 2.

mutationKey	labelClass
R10H	true
K11M	false
S13C	true
D3Q	true
Y15V	false
P7A	true
P7N	true
